- target_under_test: Acetylcholinesterase (Homo sapiens)
- Sequence (P22303 whole entry): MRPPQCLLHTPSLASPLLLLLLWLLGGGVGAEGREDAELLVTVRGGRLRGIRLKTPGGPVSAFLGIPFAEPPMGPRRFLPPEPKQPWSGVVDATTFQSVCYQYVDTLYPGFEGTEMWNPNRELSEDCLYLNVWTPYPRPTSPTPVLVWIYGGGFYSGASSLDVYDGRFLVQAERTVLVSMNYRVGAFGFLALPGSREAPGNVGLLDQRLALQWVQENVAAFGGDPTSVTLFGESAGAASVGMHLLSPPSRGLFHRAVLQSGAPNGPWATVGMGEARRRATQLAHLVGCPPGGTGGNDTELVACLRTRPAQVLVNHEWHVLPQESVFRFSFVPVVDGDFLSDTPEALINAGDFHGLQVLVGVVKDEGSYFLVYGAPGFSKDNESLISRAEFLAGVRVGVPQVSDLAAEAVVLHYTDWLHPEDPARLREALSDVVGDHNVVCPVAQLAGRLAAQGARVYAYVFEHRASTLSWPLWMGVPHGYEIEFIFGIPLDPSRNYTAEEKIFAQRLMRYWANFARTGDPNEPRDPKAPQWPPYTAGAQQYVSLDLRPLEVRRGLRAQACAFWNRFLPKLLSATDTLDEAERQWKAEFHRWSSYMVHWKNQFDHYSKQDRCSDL
- assay_info: Inhibition of AChE in human erythrocytes using acetylthiocholine iodide as substrate at 20 uM preincubated with enzyme for 30 mins followed by substrate addition and measured after 30 mins by Ellman's method relative to control
- Format: cell-based
- stated_conditions: Erythrocyte, time 60.0 min
quantity_measured: inhibition (%)
Give bare numbers, in %.

compound | target_under_test | inhibition (%)
COc1cc(/C=C/C(=O)N2CCN(Cc3ccccc3F)CC2)ccc1O | Acetylcholinesterase (Homo sapiens) | 34.2
COc1cc(/C=C/C(=O)N2CCN(Cc3ccc(Cl)cc3)CC2)ccc1O | Acetylcholinesterase (Homo sapiens) | 37.3
COc1cc(/C=C/C(=O)N2CCN(Cc3ccccc3Cl)CC2)ccc1O | Acetylcholinesterase (Homo sapiens) | 47
COc1cc(/C=C/C(=O)N2CCN(Cc3ccc(C#N)cc3)CC2)ccc1O | Acetylcholinesterase (Homo sapiens) | 39.4
COc1cc(/C=C/C(=O)N2CCN(Cc3cccc(C)c3)CC2)ccc1O | Acetylcholinesterase (Homo sapiens) | 45.5

Could you report inhibition for every entry in the following list?
1. COc1cc(/C=C/C(=O)O)ccc1O [FERULATE]
2. COc1cc(/C=C/C(=O)N2CCN(Cc3ccccc3C)CC2)ccc1O
3. COc1cc(/C=C/C(=O)N2CCN(Cc3cccc([N+](=O)[O-])c3)CC2)ccc1O
4. COc1cc(/C=C/C(=O)N2CCN(Cc3ccccc3C#N)CC2)ccc1O
5. COc1cc(/C=C/C(=O)N2CCN(Cc3cccc(C#N)c3)CC2)ccc1O
6. COc1cc(/C=C/C(=O)N2CCN(Cc3ccc(C)cc3)CC2)ccc1O

Result:
15.1
43.1
38.8
45.4
42.4
43.2

----------
Kindly state pIC50 for each of the entries shown.
- target_under_test: Cholinesterase (Equus caballus, UniProt P81908)
- Sequence (P81908 whole entry): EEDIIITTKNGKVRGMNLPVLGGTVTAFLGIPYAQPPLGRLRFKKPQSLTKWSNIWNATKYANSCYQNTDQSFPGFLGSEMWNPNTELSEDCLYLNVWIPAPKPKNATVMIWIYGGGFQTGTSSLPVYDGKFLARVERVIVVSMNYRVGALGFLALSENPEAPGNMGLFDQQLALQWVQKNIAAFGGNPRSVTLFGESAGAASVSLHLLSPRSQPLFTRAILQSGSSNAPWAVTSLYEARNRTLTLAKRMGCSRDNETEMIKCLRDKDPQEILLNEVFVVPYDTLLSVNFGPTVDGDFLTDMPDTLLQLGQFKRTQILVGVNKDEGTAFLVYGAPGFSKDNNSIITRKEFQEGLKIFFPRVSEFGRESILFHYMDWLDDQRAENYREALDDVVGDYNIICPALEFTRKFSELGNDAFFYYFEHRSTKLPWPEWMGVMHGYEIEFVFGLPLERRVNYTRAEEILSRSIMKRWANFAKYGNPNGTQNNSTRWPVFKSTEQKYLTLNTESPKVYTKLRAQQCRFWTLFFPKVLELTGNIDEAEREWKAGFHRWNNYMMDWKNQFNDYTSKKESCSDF
- assay_info: Inhibition of equine serum BChE using butyrylthiocholine iodide as substrate preincubated with enzyme for 30 mins followed by substrate addition and measured after 30 mins by Ellman's method
Answers are plain numbers, as −log10 of the molar value.

Please review the following examples before continuing.
item_smiles | pIC50
COc1cc(/C=C/C(=O)N2CCN(Cc3ccccc3F)CC2)ccc1O | 4.80
COc1cc(/C=C/C(=O)NCCC(=O)Nc2ccc(Cl)cc2)ccc1O | 5.15
COc1cc(/C=C/C(=O)N2CCN(Cc3cccc(C)c3)CC2)ccc1O | 4.83

Could you report pIC50 for every entry in the following list?
1. COc1ccc2[nH]cc(CCNC(=O)CNC(=O)/C=C/c3ccc(O)c(OC)c3)c2c1
2. COc1cc(/C=C/C(=O)NCCC(=O)Nc2ccccc2)ccc1O
3. COc1cccc(NC(=O)CCNC(=O)/C=C/c2ccc(O)c(OC)c2)c1
4. COc1cc(/C=C/C(=O)N2CCN(Cc3ccccc3Cl)CC2)ccc1O
5. COc1cc(/C=C/C(=O)N2CCN(Cc3cccc(F)c3)CC2)ccc1O
6. COc1cc(/C=C/C(=O)N2CCN(Cc3ccc(Cl)cc3)CC2)ccc1O

Result:
5.91
4.79
4.95
4.82
4.85
4.80
